# MEASURED_TARGET: E. coli CsgA (Escherichia coli, UniProt P28307)
# Construct: made in house; host or cells: E. coli NEB 3016 slyD::kan, pET11d
# Sequence (P28307 23-151): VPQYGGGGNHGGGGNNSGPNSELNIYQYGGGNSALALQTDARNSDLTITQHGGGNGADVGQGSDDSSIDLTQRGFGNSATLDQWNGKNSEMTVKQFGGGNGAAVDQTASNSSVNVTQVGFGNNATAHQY
# PROTOCOL_TEXT: In vitro ThioflavinT assay of CsgA aggregation (CsgA ThT Assay)
# Format: biochemical
# RECORDED_CONDITIONS: read-out: CsgA ThT Assay (2 μM CsgA) % Control Bmax 25 μM, activity range, class symbol; CsgA 2 μM, white plates; compound 25 μM
MEASUREMENT_TYPE: remaining activity at 25 µM

Example entries and their recorded answers appear below.
{"COMPOUND": "O=C(O)C1CN(Cc2ccccc2)c2c(-c3cccc(C(F)(F)F)c3)c(Cc3cccc4ccccc34)c(F)c(=O)n21 (stereo not shown)", "MEASUREMENT_TYPE": "remaining activity at 25 µM", "RESULT": "> 60%"}
{"COMPOUND": "O=C(O)C1CN(Cc2ccccc2)c2c(-c3cccc(C(F)(F)F)c3)c(Cc3cccc4ncccc34)c(Cl)c(=O)n21 (stereo not shown)", "MEASUREMENT_TYPE": "remaining activity at 25 µM", "RESULT": "> 60%"}

Request: Return value of remaining activity at 25 µM for input O=C(O)C1CN(Cc2ccccc2)c2c(-c3cccc(C(F)(F)F)c3)c(CN3CCCCC3)c(Cl)c(=O)n21 (stereo not shown) , no commentary.
Result: > 60%

Request: Return value of remaining activity at 25 µM for input O=C(O)C1CN(Cc2ccccc2)c2c(-c3cccc(C(F)(F)F)c3)c(Cc3ccccc3)c(Cl)c(=O)n21 (stereo not shown) , no commentary.
Result: > 60%

Request: Return value of remaining activity at 25 µM for input O=C(O)C1CN(Cc2cccc(O)c2)c2c(-c3cccc(C(F)(F)F)c3)c(Cc3cccc4ccccc34)c(Cl)c(=O)n21 (stereo not shown) , no commentary.
Result: > 60%

Request: Return value of remaining activity at 25 µM for input CCCN1CC(C(=O)O)n2c(c(-c3cccc(C(F)(F)F)c3)c(Cc3cccc4ccccc34)c(N3CCCC3=O)c2=O)S1(=O)=O (stereo not shown) , no commentary.
Result: > 60%

Request: Return value of remaining activity at 25 µM for input O=C(O)C1CNS(=O)(=O)c2c(-c3cccc(C(F)(F)F)c3)c(Cc3cccc4ccccc34)c(NC3CCCC3)c(=O)n21 (stereo not shown) , no commentary.
Result: > 60%

Request: Return value of remaining activity at 25 µM for input O=C(O)C1CN(Cc2cccc3ccccc23)c2c(-c3cccc(C(F)(F)F)c3)c(Cc3cccc4ccccc34)c(Cl)c(=O)n21 (stereo not shown) , no commentary.
Result: 31 to 60%

Request: Return value of remaining activity at 25 µM for input CCCN1CC(C(=O)O)n2c(c(-c3cccc(C(F)(F)F)c3)c(Cc3cccc4ccccc34)c(NC(C)C)c2=O)S1(=O)=O (stereo not shown) , no commentary.
Result: > 60%

Request: Return value of remaining activity at 25 µM for input O=C(O)C1CN(CCc2ccccc2)c2c(-c3cccc(C(F)(F)F)c3)c(Cc3cccc4ccccc34)c(Cl)c(=O)n21 (stereo not shown) , no commentary.
Result: 31 to 60%

Request: Return value of remaining activity at 25 µM for input CC(C)N1CC(C(=O)O)n2c(c(-c3cccc(C(F)(F)F)c3)c(Cc3cccc4ccccc34)c(C(N)=O)c2=O)S1(=O)=O (stereo not shown) , no commentary.
Result: 31 to 60%

Request: Return value of remaining activity at 25 µM for input CCCOc1c(Cc2cccc3ccccc23)c(-c2cccc(C(F)(F)F)c2)c2n(c1=O)C(C(=O)O)CN(CCC)S2(=O)=O (stereo not shown) , no commentary.
Result: > 60%

Request: Return value of remaining activity at 25 µM for input CC(C)(C)c1ccc(CN2CC(C(=O)O)n3c2c(-c2cccc(C(F)(F)F)c2)c(Cc2cccc4ccccc24)c(Cl)c3=O)cc1 (stereo not shown) , no commentary.
Result: 31 to 60%
